Data provenance: PubChem BioAssay (NCATS)

- experimental-protocol: NFAT Signaling Pathway (AID 444);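 also: carbachol stimulus at about its EC50 of 1 µM final; % is scaled to controls: 0 for no effect and ±100 for the full control effect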
- condition-context: Jurkat NFAT-bla M1, carbachol, beta-lactamase ratio, 5 h; at 17.2 µM (top of the series) unless noted
Results filed as inconclusive are left out.
endpoint-name: activity change, negative = inhibition (%)
Express the result in % but write the number alone.

O=C(NC1(C(F)(F)F)C(=O)Nc2c1c(=O)[nH]c(=O)n2-c1ccccc1)c1cccnc1 (configuration not stated) ... 8.45
CCN1CCc2c(C#N)c(NCc3ccccc3)nc(N(CC)CC)c2C1 ... 1.29
Clc1ccc(-n2ncc3c(NCc4ccco4)ncnc32)cc1 ... 1.57

Lab note: "Oc1c(C=NCc2ccncc2)sc2ccccc12" gave activity change, negative = inhibition of -6.22

Lab note: "[N-]=[N+]=CC(=O)c1ccnc(C(=O)C=[N+]=[N-])c1" gave activity change, negative = inhibition of -17.4

Lab note: "COc1cc(-n2c3nc4ccccc4nc3c3c(=O)n(Cc4ccco4)cnc32)cc(OC)c1OC" gave activity change, negative = inhibition of -5.5

Lab note: "CC(=O)c1cc(C#N)c(SCC(=O)C(C)(C)C)nc1C" gave activity change, negative = inhibition of -23.2

Lab note: "CCOc1ccc(-n2c3nc4ccccc4nc3c3c(=O)n(Cc4ccco4)cnc32)cc1" gave activity change, negative = inhibition of -9.2

Lab note: "CN1CCN(CCCCOc2ccc(F)cc2)CC1" gave activity change, negative = inhibition of -9.28

Lab note: "COc1cccc(OC)c1C(=O)Nc1nc2ccc(S(C)(=O)=O)cc2s1" gave activity change, negative = inhibition of 21

Lab note: "Cc1nc(NS(=O)(=O)c2ccccc2)sc1NC(=O)OCCN(C)C" gave activity change, negative = inhibition of 13.4

Lab note: "COCCNc1cc(C)c(C#N)c2nc3ccccc3n12" gave activity change, negative = inhibition of 12.9

Lab note: "COC(=O)c1ccc(CN(C(C)=O)c2ccccc2)o1" gave activity change, negative = inhibition of -7.2

* * *

- system-tested: Cytochrome P450 1A2 (Homo sapiens)
- experimental-protocol: p450-cyp1a2 (AID 410)
- condition-context: recombinant CYP1A2, luciferin-ME demethylation, luminescence; series mostly up to 57 µM
Inconclusive results are not listed. The source made the active and inactive calls. Calls come from the whole dose curve.
Respond with a class label; see active, inactive

# example entries with known answers
C[C@@]1(C(NC(=O)c2cccs2)c2ccc(-c3ccccc3)cc2)C[C@H]1C1CCCCC1 (stereo not given in full) ... inactive
O=c1cc(-c2ccccc2O)oc2c1ccc1ccccc12 ... active
COC(=O)[C@@H]1C[C@H]1[C@@H](NC(=O)c1cc(C)nn1C)c1ccccc1 ... active
CCCC[C@@H]1C[C@H]1C(NC(=O)c1ccco1)c1ccc(Cl)cc1 (stereo not given in full) ... active

Next, consider the following compound.
What classification did CCC/C=C(\CCC)C(NS(=O)(=O)c1ccc(C(F)(F)F)cc1)c1ccccc1 (stereo not given) end up with in this test?
active

* * *

- experimental-protocol: qHTS for Inhibitors of Plasmodium falciparum (CP250) proliferation (AID 504320)
- condition-context: P. falciparum CP250 in erythrocytes, SYBR Green DNA, 72 h; series mostly up to 6.7 µM
- Excerpt: Plasmodium falciparum is a virulent malarial parasite that kills 1-2 million people worldwide each year. Malaria not only inflicts tremendous suffering and morbidity on the human population, but has dramatically influenced the course of civilization with profound sociological and economic implications (Shah, S. 2010). […] Because mature erythrocytes lack DNA, only Plasmodium-derived DNA is detected. […]
Records with an inconclusive call do not appear. The source made the active and inactive calls. Calls follow the shape of the dose curve; as a rule, active = well fitted inhibition curve with a large enough effect; inconclusive = small, poorly fitted or top-dose-only effect, or effect the other way; inactive = flat fitted curve, though single readings scatter.
Respond with a class label; see active, inactive

# example entries with known answers
COC(=O)C1=C(C)N(Cc2ccccc2)C(=S)NC1c1cccc(F)c1 (stereo not drawn) ... inactive
CC[C@H](C)[C@@H](NC(=O)O[C@@H]1C(=O)c2cc(Br)ccc2O[C@H]1c1cccc(OC)c1)C(=O)OC ... inactive
COC(=O)C1=C(C(=O)OC)[C@@H]2N(Cc3ccccc3)c3ccccc3[C@@]23C[C@@H](C(=O)OC)N(C(=O)C2CCC2)C3=N1 ... inactive
CCN1C(=O)N[C@H](c2ccccc2)C(C(C)=O)=C1C ... inactive

What classification did "CC1(C)O[C@@H](C(O)(c2cc(F)c(F)c(F)c2)c2cc(F)c(F)c(F)c2)[C@H](C(O)(c2cc(F)c(F)c(F)c2)c2cc(F)c(F)c(F)c2)O1" end up with in this test?
active

What classification did "COCCN1C(=O)N[C@@H](c2ccco2)C(C(=O)OC)=C1C" end up with in this test?
inactive

What classification did COC/C=C/C1=CC2=CC(=O)C(C)(OC(=O)c3cnc4ccccc4n3)C(=O)C2=CN1Cc1ccc(OC)cc1 (stereo not drawn) end up with in this test?
inactive

What classification did COc1ccc(N2C=C3C(=O)C(C)(OC(=O)CCc4ccccc4)C(=O)C=C3C=C2c2ccc(C#N)cc2)cc1 (stereo not drawn) end up with in this test?
inactive

* * *

- Test system: CP252
- experimental-protocol: qHTS profiling for inhibitors of Plasmodium falciparum proliferation (AID 504749); also: nearly all actives have a fitted effect of over 60% in size
- condition-context: P. falciparum in erythrocytes, SYBR Green DNA, 72 h; series mostly up to 28.7 µM
Inconclusive results are not listed. Active and inactive are the calls of the source. The call rests on the fitted dose curve; in most records, active means well fitted inhibition curve with a large enough effect; inconclusive means small, poorly fitted or top-dose-only effect; inactive means flat fitted curve, though single readings scatter.
Respond with a class label; see Y (active), N (inactive)

# example entries with known answers
C[C@H]1[C@@H](OC(=O)CCC(=O)O)OC2OC3(C)CC[C@H]4[C@H](C)CC[C@@H]1[C@@]24OO3 (some centres undefined) ... Y
CO[C@H]1C[C@@H]2CC[C@@H](C)[C@@](O)(O2)C(=O)C(=O)N2CCCC[C@H]2C(=O)O[C@H]([C@H](C)C[C@@H]2CC[C@@H](O)[C@H](OC)C2)CC(=O)[C@H](C)/C=C(\C)[C@@H](O)[C@@H](OC)C(=O)[C@H](C)C[C@H](C)/C=C/C=C/C=C/1C ... Y
Nc1ncn(C2C[C@H](O)[C@@H](CO)O2)c(=O)n1 (some centres undefined) ... N
CC(=O)O[C@]1(C(C)=O)CCC2C3CCC4=CC(=O)CCC4(C)C3(F)C(O)CC21C (some centres undefined) ... N
C#C[C@@]1(O)CC[C@@H]2[C@H]3CCC4=C/C(=N\O)CC[C@H]4[C@@H]3CC[C@]21CC ... N

What classification did CC1CN(c2c(F)c(N)c3c(=O)c(C(=O)O)cn(C4CC4)c3c2F)CC(C)N1 (centres undefined) end up with in this test?
N

What classification did C[C@]12CC[C@@H]3c4ccc(O)cc4C[C@@H](CCCCCCCCCS(=O)CCCC(F)(F)C(F)(F)F)C3[C@@H]1CC[C@@H]2O (some centres undefined) end up with in this test?
Y

What classification did OCC1O[C@@H](O[C@@H]2C(CO)OC(O)C(O)C2O)C(O)C(O)C1O (some centres undefined) end up with in this test?
N

What classification did Nc1nc(/C(=C/CC(=O)O)C(=O)NC2C(=O)N3C(C(=O)O)=CCSC23)cs1 (centres undefined) end up with in this test?
N

What classification did "CO/N=C(/C(=O)N[C@@H]1C(=O)N2C(C(=O)O)=C(CSc3nc(C)c(CC(=O)O)s3)CS[C@H]12)c1csc(N)n1" end up with in this test?
N

What classification did OCC(O)C(O)C(O)C(O)CO (centres undefined) end up with in this test?
N

What classification did CC(=O)N1CC(O)CC1C(=O)O (centres undefined) end up with in this test?
N

What classification did CC1CCC(C(C)C)C(O)C1 (centres undefined) end up with in this test?
N

What classification did CC(O)C(N)C(=O)O (centres undefined) end up with in this test?
N

What classification did C=CCn1c(=O)n(C2OC(CO)C(O)C2O)c2nc(N)[nH]c(=O)c21 (centres undefined) end up with in this test?
N

What classification did CCC(C(=O)O)C1OC(C(C)C(O)C(C)C(=O)C(CC)C2OC3(C=CC(O)C4(CCC(C)(C5CCC(O)(CC)C(C)O5)O4)O3)C(C)CC2C)C(C)CC1C (centres undefined) end up with in this test?
Y

* * *

- System: CP237
- experimental-protocol: qHTS profiling for inhibitors of Plasmodium falciparum proliferation (AID 504749); also: nearly all actives have a fitted effect of over 60% in size; also: potency is read from the fitted curve at half-maximal effect
- condition-context: P. falciparum in erythrocytes, SYBR Green DNA, 72 h; series mostly up to 28.7 µM
Inconclusive results are not listed. Calls of active or inactive are those of the source. Calls follow the shape of the dose curve; as a rule, active = well fitted inhibition curve with a large enough effect; inconclusive = small, poorly fitted or top-dose-only effect; inactive = flat fitted curve, though single readings scatter.
endpoint-name: Potency

Here are 8 molecules together with their reported answers.
Cc1cncc(C(=O)O)[n+]1[O-] ... inactive
CC[C@H](C)[C@H]1O[C@]2(CC[C@@H]1C)C[C@@H]1C[C@@H](C/C=C(\C)[C@H](O[C@@H]3C[C@H](OC)[C@H](O[C@@H]4C[C@H](OC)[C@@H](O)[C@H](C)O4)[C@H](C)O3)[C@@H](C)/C=C/C=C3\CO[C@@H]4[C@H](O)C(C)=C[C@@H](C(=O)O1)[C@]34O)O2 ... 2240 nM (active)
C[C@@H]1CCN(C(=O)[C@H](CCCNC(=N)N)NS(=O)(=O)c2cccc3c2NC[C@H](C)C3)[C@@H](C(=O)O)C1 ... inactive
OCC1O[C@H](Oc2ccc(O)cc2)C(O)C(O)C1O (stereo partly drawn) ... inactive
Clc1ccc(CS[C@@H](Cn2ccnc2)c2ccc(Cl)cc2Cl)cc1 ... 1780 nM (active)
Cc1onc(-c2c(F)cccc2Cl)c1C(=O)NC1C(=O)N2C1SC(C)(C)C2C(=O)O (stereo not drawn) ... inactive
Cc1cnc(NC(=O)C2C(=O)c3ccccc3S(=O)(=O)N2C)s1 (stereo not drawn) ... inactive
CCCC(=O)Nc1c(I)cc(I)c(C[C@H](CC)C(=O)O)c1I ... inactive

Given the molecule C=C(CC[C@@H](C)[C@H]1CCC2[C@]1(C)CC[C@]13C[C@@]14CCC(OC(=O)/C=C/c1ccc(O)c(OC)c1)C(C)(C)[C@@H]4CC[C@@]23C)C(C)C (stereo partly drawn) and test system CP237, the measured Potency is inactive

Given the molecule NC(CSSCC(N)C(=O)O)C(=O)O (stereo not drawn) and test system CP237, the measured Potency is inactive

Given the molecule C[C@]12CC[C@@H]3c4ccc(O)cc4C[C@@H](CCCCCCCCCS(=O)CCCC(F)(F)C(F)(F)F)C3[C@@H]1CC[C@@H]2O (stereo partly drawn) and test system CP237, the measured Potency is 5010 nM (active)

Given the molecule CC(CCC(=O)O)C1CCC2C3C(=O)C[C@@H]4CC(=O)CC[C@@]4(C)C3CC(=O)[C@]12C (stereo partly drawn) and test system CP237, the measured Potency is inactive

Given the molecule CC(c1ncncc1F)[C@](O)(Cn1cncn1)c1ccc(F)cc1F (stereo partly drawn) and test system CP237, the measured Potency is inactive
